test system: E21 (patient-derived glioblastoma stem cells of mesenchymal subtype); test: phenotypic distance (Euclidean, principal components) from DMSO controls (arbitrary units); higher = stronger morphological change; details: 333.3 nM; exposure time: 72 h;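 also: cell Painting imaging in 384-well plates, CellProfiler features reduced to at least 20 principal components, Euclidean distance versus same-plate DMSO vehicle wells (0.1% v/v), median over six images per well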
Where a name gives a salt, the structure may show the parent alone.
Measured Quantity: phenotypic distance
Keep it simple and answer with nothing but the number.

As a guide, the following entries are already answered.
Dear colleague, I am looking for the recorded phenotypic distance of the following compound: CCCCC1C(=O)N(c2ccccc2)N(c2ccc(O)cc2)C1=O (stereo unspecified)
0.588

Record: CCOC(=O)OC(C)OC(=O)[C@@H]1N2C(=O)[C@@H](NC(=O)[C@H](N)c3ccccc3)[C@H]2SC1(C)C (stereo partly specified) [Bacampicillin hydrochloride]
0.776

Record: COc1ccc(/C=C\c2cc(OC)c(OC)c(OC)c2)cc1OP(=O)(O)O [Fosbretabulin Disodium]
6.69

Record: `COC(=O)Nc1nc2cc(C(=O)c3ccc(F)cc3)ccc2[nH]1`
2.94

Record: `COc1cc2c(cc1O)CC[C@@H]1[C@@H]2CC[C@]2(C)[C@@H](O)CC[C@@H]12`
1.01

Next:
Dear colleague, I am looking for the recorded phenotypic distance of the following compound: `COC(=O)C[C@](O)(CCCC(C)(C)O)C(=O)O[C@@H]1C(OC)=C[C@]23CCCN2CCc2cc4c(cc2[C@H]13)OCO4`
4.11
